These entries and their values trace back to the supplement of paper PMC6607015.

# System: A431
# Test protocol: filipin (cholesterol) integrated intensity within LBPA endosomes, Z-score; higher = more cholesterol in LBPA endosomes
# Condition notes: compound concentration in added solution (µM; 5 µl added to 20 µl cells): 10; 18 h
Where a name gives a salt, the structure may show the parent alone.
Readout: filipin (z-score)

INSERT INTO results (compound, study_target, meas_value) VALUES
  ('CCS(=O)(=O)CCn1c([N+](=O)[O-])cnc1C [Tinidazole]', 'A431', -0.394),
  ('CCCCNc1c(C(=O)OCC)c(C)nc2c1cnn2CC [Tracazolate hydrochloride]', 'A431', 0.00245),
  ('C[C@]12CCC(=O)C=C1CC[C@@H]1[C@@H]2[C@@H](O)C[C@@]2(C)[C@H]1CC[C@]2(O)C(=O)CO [Hydrocortisone base]', 'A431', -0.327),
  ('CCN(CC)C(=O)N1CCN(C)CC1 [Diethylcarbamazine citrate]', 'A431', -0.529),
  ('N[C@H]1CONC1=O [(S)-(-)-Cycloserine]', 'A431', -0.457),
  ('NC(Cc1cc(I)c(Oc2cc(I)c(O)c(I)c2)c(I)c1)C(=O)O (centres undefined) [Thyroxine (L)]', 'A431', -0.586),
  ('COC(=O)Nc1nc2cc([S+]([O-])c3ccccc3)ccc2[nH]1 (centres undefined) [Oxfendazol]', 'A431', -0.364),
  ('COC(=O)Nc1nc2cc(C(=O)c3ccc(F)cc3)ccc2[nH]1 [Flubendazol]', 'A431', -0.305),
  ('Cc1ncc(CO)c(CO)c1O [Pyridoxine hydrochloride]', 'A431', -0.475);

* * *

# Test system: A431
# Test protocol: whole-cell filipin (free cholesterol) integrated intensity, Z-score; higher = more cholesterol staining
# Condition notes: compound concentration in added solution (µM; 5 µl added to 20 µl cells): 10; 18 h
Structures can show the parent of a compound that is named as a salt.
List of whole-cell filipin (z-score) values.
Readout: whole-cell filipin (z-score)

INSERT INTO assay_data (molecule, readout, meas_value) VALUES
  ('COC(=O)C1=C(C#N)NC(C)=C(C(=O)OC(C)C)C1c1cccc([N+](=O)[O-])c1 (stereo not drawn) [Nilvadipine]', 'whole-cell filipin (z-score)', 0.11),
  ('CN(C)CCCO[C@@H]1[C@H]2OC(C)(C)O[C@H]2O[C@@H]1[C@H](O)CO [Amiprilose hydrochloride]', 'whole-cell filipin (z-score)', -0.0258),
  ('CC(=O)OCC1=C(C(=O)O)N2C(=O)[C@@H](NC(=O)Cc3cccs3)[C@H]2SC1 [Cephalothin sodium salt]', 'whole-cell filipin (z-score)', -0.46),
  ('Clc1ccc(Nc2nnc(Cc3ccncc3)c3ccccc23)cc1 [Vatalanib]', 'whole-cell filipin (z-score)', -0.382),
  ('O=C1CC2(CCCC2)CC(=O)N1CCCCN1CCN(c2ncccn2)CC1 [Buspirone hydrochloride]', 'whole-cell filipin (z-score)', 0.536),
  ('O=C1c2ccccc2C(=O)C1c1ccccc1 [Phenindione]', 'whole-cell filipin (z-score)', -0.346),
  ('CCN1CCC[C@H]1CNC(=O)c1c(OC)ccc(Br)c1OC [Remoxipride Hydrochloride]', 'whole-cell filipin (z-score)', -0.41),
  ('CN(C)CC/C=C1/c2ccccc2Sc2ccc(Cl)cc21 [Chlorprothixene hydrochloride]', 'whole-cell filipin (z-score)', 1.46);

* * *

# System: A431
# Test protocol: LBPA endosome anti-LBPA integrated intensity (sum per cell), Z-score; higher = more LBPA staining
# Condition notes: compound concentration in added solution (µM; 5 µl added to 20 µl cells): 10; 18 h
Where a name gives a salt, the structure may show the parent alone.
The entries below come with measured LBPA endosome anti-LBPA integrated intensity (z-score) values attached.
Readout: LBPA endosome anti-LBPA integrated intensity (z-score)

INSERT INTO measurements (molecule, study_target, meas_value) VALUES
  ('CN(C)CCCN1c2ccccc2Sc2ccc(C(F)(F)F)cc21 [Triflupromazine hydrochloride]', 'A431', 3.06),
  ('CCCNCC(O)COc1ccccc1C(=O)CCc1ccccc1 (centres undefined) [Propafenone hydrochloride]', 'A431', 3.53),
  ('COc1cc(-c2ccc(=O)[nH]n2)ccc1OC(F)F', 'A431', -0.319),
  ('O=C(CCCN1CCN(c2ccccn2)CC1)c1ccc(F)cc1', 'A431', -0.0879),
  ('CNCCCN1c2ccccc2CCc2ccccc21 [Desipramine hydrochloride]', 'A431', 2.09),
  ('C#C[C@]1(O)CC[C@H]2[C@@H]3CCc4cc(O)ccc4[C@H]3CC[C@@]21C', 'A431', -0.522),
  ('O=C(c1ccc(F)cc1)C1CCN(CCn2c(=O)[nH]c3ccccc3c2=O)CC1 [Ketanserin tartrate hydrate]', 'A431', 0.533),
  ('C[C@@]1(O)CCOC(=O)C1', 'A431', -0.324),
  ('NS(=O)(=O)c1cc2c(cc1Cl)NC(CC1CCCC1)NS2(=O)=O (centres undefined) [Cyclopenthiazide]', 'A431', -0.58),
  ('CN(C/C=C/c1ccccc1)Cc1cccc2ccccc12 [Naftifine hydrochloride]', 'A431', -0.115),
  ('Clc1ccc2nsnc2c1NC1=NCCN1 [Tizanidine HCl]', 'A431', -0.331),
  ('Cc1scc2c1N(C(=O)CN1CCN(C)CC1)c1ccccc1NC2=O [Telenzepine dihydrochloride]', 'A431', -0.645),
  ('CN/C(=N\CCSCc1nc[nH]c1C)NC#N', 'A431', -0.436),
  ('CCOC(=O)O[C@]1(C(=O)COC(=O)CC)CC[C@H]2[C@@H]3CCC4=CC(=O)C=C[C@]4(C)[C@H]3[C@@H](O)C[C@@]21C [Prednicarbate]', 'A431', -0.408),
  ('CCN(CC)CCOC(=O)C(Cc1cccc2ccccc12)CC1CCCO1 (centres undefined) [Nafronyl oxalate]', 'A431', 1.69),
  ('CC(C)NC[C@H](O)COc1cccc2ccccc12 [(S)-propranolol hydrochloride]', 'A431', -0.105),
  ('Cc1cc2cc3c(C)cc(=O)oc3c(C)c2o1', 'A431', -0.317),
  ('Cc1c(NC(C)C)c(=O)n(-c2ccccc2)n1C [Isopyrin hydrochloride]', 'A431', -0.574),
  ('CN1[C@@H]2CC[C@H]1C[C@@H](OC(=O)c1c[nH]c3ccccc13)C2 [Tropisetron HCl]', 'A431', -0.35),
  ('CCN1CCCC1CNC(=O)c1cc(S(N)(=O)=O)ccc1OC (centres undefined) [Sulpiride]', 'A431', -0.472),
  ('C[C@@H]1CCC[C@H](C)N1NC(=O)c1ccc(Cl)c(S(N)(=O)=O)c1 [Clopamide]', 'A431', -0.569),
  ('CCC(Cc1c(I)cc(I)c(N)c1I)C(=O)O (centres undefined)', 'A431', -0.521),
  ('N[C@@H]1CONC1=O', 'A431', -0.278),
  ('CC(=O)c1ccc2c(c1)N(CCCN(C)C)c1ccccc1S2 [Acetopromazine maleate salt]', 'A431', 1.92),
  ('CC(C)(CO)C(O)C(=O)NCCCO (centres undefined)', 'A431', -0.558),
  ('Cc1onc(-c2c(Cl)cccc2Cl)c1C(=O)N[C@@H]1C(=O)N2[C@@H]1SC(C)(C)[C@@H]2C(=O)O [Dicloxacillin sodium salt hydrate]', 'A431', -0.319),
  ('CC[C@@H](CO)NCCN[C@@H](CC)CO [Ethambutol dihydrochloride]', 'A431', -0.297),
  ('C#C[C@]1(OC(C)=O)CC[C@H]2[C@@H]3CCC4=CC(=NO)CC[C@@H]4[C@H]3CC[C@@]21CC (mixture of isomers) [Norgestimate]', 'A431', -0.26),
  ('Cc1cccc(C)c1NC(=O)CN1CCN(CCCC(c2ccc(F)cc2)c2ccc(F)cc2)CC1', 'A431', 3.2),
  ('CN(C)CCN(Cc1ccc(Cl)cc1)c1ccccn1 [Chloropyramine hydrochloride]', 'A431', 0.629),
  ('O=c1cc(-c2ccc(O)c(O)c2)oc2cc(O)cc(O)c12', 'A431', -0.401),
  ('CN[C@@H]1[C@@H](O[C@H]2O[C@H](CO)[C@@H](N)[C@H](O)[C@H]2O)OC2C[C@@H](N)[C@@H](O[C@H]3[C@H](O)[C@@H](O)[C@H](N)C[C@@H]3N)OC2[C@@H]1O (some centres undefined)', 'A431', -0.469),
  ('CC(=O)[C@H]1CC[C@H]2[C@@H]3CCC4=CC(=O)CC[C@]4(C)[C@H]3CC[C@]12C', 'A431', 2.4),
  ('CC(C)(O)c1ccccc1CC[C@@H](SCC1(CC(=O)O)CC1)c1cccc(/C=C/c2ccc3ccc(Cl)cc3n2)c1', 'A431', -0.42);
